# System: Salmonella
# test-name: Antibacterial activity against Salmonella assessed as growth inhibition after 7 days by microtiter plate assay
# Format: functional
# details: 168 h
metric: MIC (µg/mL)
# unit: µg/mL | format: bare number

Q: Bench note: what MIC did C[C@H]1[C@@H](OCCN2CCN(c3cc4c(cc3F)c(=O)c(C(=O)O)cn4-c3ccc(F)cc3)CC2)O[C@@H]2O[C@@]3(C)CC[C@H]4[C@H](C)CC[C@@H]1[C@@]24OO3 show?
Ans: 16

Q: Give the measured MIC of NC1CCN(c2c(F)cc3c(=O)c(C(=O)O)cn(C4CC4)c3c2Cl)C1 (stereo not given) .
Ans: 4

Q: Would you mind telling me what MIC value was observed for C[C@H]1[C@@H](OC(=O)CCC(=O)N2CCN(c3cc4c(cc3F)c(=O)c(C(=O)O)cn4-c3ccc(F)cc3)CC2)O[C@@H]2O[C@@]3(C)CC[C@H]4[C@H](C)CC[C@@H]1[C@@]24OO3 ?
Ans: 16

Q: Using the record for C[C@H]1[C@@H](OCCN2CCN(c3cc4c(cc3F)c(=O)c(C(=O)O)cn4C3CC3)CC2)O[C@@H]2O[C@@]3(C)CC[C@H]4[C@H](C)CC[C@@H]1[C@@]24OO3 , report its MIC.
Ans: 16

Q: What value of measured MIC is listed for C[C@H]1[C@@H](OCCCN2CCN(c3cc4c(cc3F)c(=O)c(C(=O)O)cn4C3CC3)CC2)O[C@@H]2O[C@@]3(C)CC[C@H]4[C@H](C)CC[C@@H]1[C@@]24OO3 ?
Ans: 16

* * *

# System: Salmonella
# test-name: Antibacterial activity against Salmonella assessed as growth inhibition after 7 days by microtiter plate assay
# Format: functional
# details: 168 h
Exercise: state measured MIC for each of the compounds provided.
Number only, in µg/mL; omit the unit.

Q: Which measured MIC value corresponds to C[C@H]1[C@@H](O)O[C@@H]2O[C@@]3(C)CC[C@H]4[C@H](C)CC[C@@H]1[C@@]24OO3 [ARTENIMOL] ?
Ans: 16

Q: I am curious: what MIC value has been reported for C[C@H]1[C@@H](OC(=O)CCC(=O)NC2CCN(c3c(F)cc4c(=O)c(C(=O)O)cn(C5CC5)c4c3Cl)C2)O[C@@H]2O[C@@]3(C)CC[C@H]4[C@H](C)CC[C@@H]1[C@@]24OO3 (stereo partly drawn) ?
Ans: 16

Q: // lookup MIC for C[C@H]1[C@@H](OCCCNC2CCN(c3c(F)cc4c(=O)c(C(=O)O)cn(C5CC5)c4c3Cl)C2)O[C@@H]2O[C@@]3(C)CC[C@H]4[C@H](C)CC[C@@H]1[C@@]24OO3 (stereo partly drawn)
Ans: 16

* * *

# System: Mycobacterium tuberculosis
# test-name: Antibacterial activity against drug-sensitive 1 ug/ml Mycobacterium tuberculosis clinical isolate 753 assessed as growth inhibition after 7 days by microtiter plate assay
# Format: functional
# details: isolate 753, 168 h
metric: MIC (µg/mL)
Respond with the bare value in µg/mL.

Q: So what MIC did NC1CCN(c2c(F)cc3c(=O)c(C(=O)O)cn(C4CC4)c3c2Cl)C1 (stereo unspecified) get with Mycobacterium tuberculosis?
Ans: 0.5

Q: Item C[C@H]1[C@@H](OCCNC2CCN(c3c(F)cc4c(=O)c(C(=O)O)cn(C5CC5)c4c3Cl)C2)O[C@@H]2O[C@@]3(C)CC[C@H]4[C@H](C)CC[C@@H]1[C@@]24OO3 (stereo partly specified) with Mycobacterium tuberculosis - MIC?
Ans: 0.125

Q: Lookup: MIC / Mycobacterium tuberculosis / C[C@H]1[C@@H](OCCCNC2CCN(c3c(F)cc4c(=O)c(C(=O)O)cn(C5CC5)c4c3Cl)C2)O[C@@H]2O[C@@]3(C)CC[C@H]4[C@H](C)CC[C@@H]1[C@@]24OO3 (stereo partly specified)
Ans: 0.125

Q: So what MIC did CCn1cc(C(=O)O)c(=O)c2cc(F)c(N3CCNCC3)cc21 get with Mycobacterium tuberculosis?
Ans: 4

Q: # get_value(readout= MIC, system= Mycobacterium tuberculosis) for O=C(O)c1cn(-c2ccc(F)cc2)c2cc(N3CCNCC3)c(F)cc2c1=O
Ans: 8

* * *

Could you please report measured MIC for the items listed next?
# System: Staphylococcus aureus
# test-name: Antibacterial activity against Staphylococcus aureus assessed as growth inhibition after 7 days by microtiter plate assay
# Type: functional
# details: 168 h
Hey, just the number and the unit after it is fine.

Q: What value of measured MIC is listed for C[C@H]1[C@@H](OC(=O)CCC(=O)N2CCN(c3cc4c(cc3F)c(=O)c(C(=O)O)cn4-c3ccc(F)cc3)CC2)O[C@@H]2O[C@@]3(C)CC[C@H]4[C@H](C)CC[C@@H]1[C@@]24OO3 ?
Ans: 8 µg/mL

Q: Please give the measured MIC for this molecule: O=C(O)c1cn(-c2ccc(F)cc2)c2cc(N3CCNCC3)c(F)cc2c1=O
Ans: 16 µg/mL

Q: Report MIC for O=C(O)c1cn(C2CC2)c2cc(N3CCNCC3)c(F)cc2c1=O please.
Ans: 8 µg/mL

Q: // lookup MIC for CCn1cc(C(=O)O)c(=O)c2cc(F)c(N3CCN(CCO[C@H]4O[C@@H]5O[C@@]6(C)CC[C@H]7[C@H](C)CC[C@@H]([C@H]4C)[C@@]57OO6)CC3)cc21
Ans: 8 µg/mL

Q: Can you look up the measured MIC of C[C@H]1[C@@H](OCCCN2CCN(c3cc4c(cc3F)c(=O)c(C(=O)O)cn4-c3ccc(F)cc3)CC2)O[C@@H]2O[C@@]3(C)CC[C@H]4[C@H](C)CC[C@@H]1[C@@]24OO3 for me?
Ans: 16 µg/mL

Q: Which MIC reading was recorded for the molecule CCn1cc(C(=O)O)c(=O)c2cc(F)c(N3CCNCC3)cc21 ?
Ans: 16 µg/mL

* * *

# Tested on: Staphylococcus aureus
# test-name: Antibacterial activity against Staphylococcus aureus assessed as zone of inhibition at 2 ug/ml
# Format: functional
# details: read-out: DIZ
metric: zone of inhibition at 2 µg/mL

Q: # returns recorded zone of inhibition at 2 µg/mL (system: Staphylococcus aureus) for C[C@H]1[C@@H](OCCCN2CCN(c3cc4c(cc3F)c(=O)c(C(=O)O)cn4-c3ccc(F)cc3)CC2)O[C@@H]2O[C@@]3(C)CC[C@H]4[C@H](C)CC[C@@H]1[C@@]24OO3
Ans: < 5 mm

Q: Look up zone of inhibition at 2 µg/mL with Staphylococcus aureus for this compound: NC1CCN(c2c(F)cc3c(=O)c(C(=O)O)cn(C4CC4)c3c2Cl)C1 (stereo not drawn)
Ans: 21 mm

Q: Can you look up zone of inhibition at 2 µg/mL on Staphylococcus aureus for C[C@H]1[C@@H](OCCNC2CCN(c3c(F)cc4c(=O)c(C(=O)O)cn(C5CC5)c4c3Cl)C2)O[C@@H]2O[C@@]3(C)CC[C@H]4[C@H](C)CC[C@@H]1[C@@]24OO3 (stereo partly drawn) ?
Ans: < 5 mm

* * *

# System: Pseudomonas aeruginosa
# test-name: Antibacterial activity against Pseudomonas aeruginosa assessed as growth inhibition after 7 days by microtiter plate assay
# Format: functional
# details: 168 h
metric: MIC (µg/mL)
Enter your answer as a number in µg/mL; do not include the unit.

Q: For the compound C[C@H]1[C@@H](OCCCN2CCN(c3cc4c(cc3F)c(=O)c(C(=O)O)cn4C3CC3)CC2)O[C@@H]2O[C@@]3(C)CC[C@H]4[C@H](C)CC[C@@H]1[C@@]24OO3 , what MIC is on record?
Ans: 16

Q: For the compound shown here, C[C@H]1[C@@H](OCCNC2CCN(c3c(F)cc4c(=O)c(C(=O)O)cn(C5CC5)c4c3Cl)C2)O[C@@H]2O[C@@]3(C)CC[C@H]4[C@H](C)CC[C@@H]1[C@@]24OO3 (stereo partly specified) , give the reported MIC.
Ans: 16

Q: // MIC lookup, key: NC1CCN(c2c(F)cc3c(=O)c(C(=O)O)cn(C4CC4)c3c2Cl)C1 (stereo unspecified)
Ans: 0.5

Q: What does the data say about its MIC? Entry: C[C@H]1[C@@H](OC(=O)CCC(=O)N2CCN(c3cc4c(cc3F)c(=O)c(C(=O)O)cn4-c3ccc(F)cc3)CC2)O[C@@H]2O[C@@]3(C)CC[C@H]4[C@H](C)CC[C@@H]1[C@@]24OO3
Ans: 16

Q: What does the record list as MIC for O=C(O)c1cn(-c2ccc(F)cc2)c2cc(N3CCNCC3)c(F)cc2c1=O ?
Ans: 2

Q: Which MIC reading was recorded for the compound CCn1cc(C(=O)O)c(=O)c2cc(F)c(N3CCN(CCO[C@H]4O[C@@H]5O[C@@]6(C)CC[C@H]7[C@H](C)CC[C@@H]([C@H]4C)[C@@]57OO6)CC3)cc21 ?
Ans: 16

Q: Consider the compound shown here: C[C@H]1[C@@H](OCCN2CCN(c3cc4c(cc3F)c(=O)c(C(=O)O)cn4-c3ccc(F)cc3)CC2)O[C@@H]2O[C@@]3(C)CC[C@H]4[C@H](C)CC[C@@H]1[C@@]24OO3 What is its recorded MIC?
Ans: 16

Q: Field request: MIC | item: C[C@H]1[C@@H](OC(=O)CCC(=O)N2CCN(c3cc4c(cc3F)c(=O)c(C(=O)O)cn4C3CC3)CC2)O[C@@H]2O[C@@]3(C)CC[C@H]4[C@H](C)CC[C@@H]1[C@@]24OO3
Ans: 16

Q: # MIC lookup, item CCn1cc(C(=O)O)c(=O)c2cc(F)c(N3CCN(C(=O)CCC(=O)O[C@H]4O[C@@H]5O[C@@]6(C)CC[C@H]7[C@H](C)CC[C@@H]([C@H]4C)[C@@]57OO6)CC3)cc21
Ans: 16

Q: For C[C@H]1[C@@H](OCCCNC2CCN(c3c(F)cc4c(=O)c(C(=O)O)cn(C5CC5)c4c3Cl)C2)O[C@@H]2O[C@@]3(C)CC[C@H]4[C@H](C)CC[C@@H]1[C@@]24OO3 (stereo partly specified) , what is its reported MIC?
Ans: 8

Q: May I ask what MIC has been recorded for CCn1cc(C(=O)O)c(=O)c2cc(F)c(N3CCNCC3)cc21 ?
Ans: 2

Q: GET /values?readout=MIC&item= C[C@H]1[C@@H](O)O[C@@H]2O[C@@]3(C)CC[C@H]4[C@H](C)CC[C@@H]1[C@@]24OO3
Ans: 16

Q: MIC for C[C@H]1[C@@H](OC(=O)CCC(=O)NC2CCN(c3c(F)cc4c(=O)c(C(=O)O)cn(C5CC5)c4c3Cl)C2)O[C@@H]2O[C@@]3(C)CC[C@H]4[C@H](C)CC[C@@H]1[C@@]24OO3 (stereo partly specified) ?
Ans: 16

Q: Can you look up the measured MIC of CCn1cc(C(=O)O)c(=O)c2cc(F)c(N3CCN(CCCO[C@H]4O[C@@H]5O[C@@]6(C)CC[C@H]7[C@H](C)CC[C@@H]([C@H]4C)[C@@]57OO6)CC3)cc21 for me?
Ans: 16

Q: # lookup: MIC of C[C@H]1[C@@H](OCCCN2CCN(c3cc4c(cc3F)c(=O)c(C(=O)O)cn4-c3ccc(F)cc3)CC2)O[C@@H]2O[C@@]3(C)CC[C@H]4[C@H](C)CC[C@@H]1[C@@]24OO3
Ans: 16

Q: // lookup MIC for C[C@H]1[C@@H](OCCN2CCN(c3cc4c(cc3F)c(=O)c(C(=O)O)cn4C3CC3)CC2)O[C@@H]2O[C@@]3(C)CC[C@H]4[C@H](C)CC[C@@H]1[C@@]24OO3
Ans: 16
